assay: S. cerevisiae growth modulation with rapamycin, primary screen, strain BY4716, OD600, 96 h (AID 1091); conditions: higher = more signal, called active from +8 up or from −8 down; further: test concentration not given here
Kindly state z-score for each of the entries shown.
Answer with the value's number alone.

Task: Quick one: z-score of COCCOC(=O)N1C(=O)[C@@]2(c3cc(C#CCCO)ccc31)[C@H](C(=O)N1CCN(c3ncccn3)CC1)[C@H]1C(=O)O[C@H](c3ccccc3)[C@H](c3ccccc3)N1[C@@H]2c1ccc(O)cc1 ?
Output: 1.63

Task: # lookup: z-score of COCCOC(=O)N1C(=O)[C@@]2(c3cc(C#CCNC(N)=O)ccc31)[C@H](C(=O)NC[C@H](O)c1ccccc1)[C@H]1C(=O)O[C@H](c3ccccc3)[C@H](c3ccccc3)N1[C@@H]2c1ccc(OCCO)cc1
Output: 4.57

Task: z-score lookup needed for CC(C)C[C@@H]1NC(=O)[C@@H]2C[C@H](C(=O)O)[C@H](c3ccc(O)cc3)N2C1=O , thanks.
Output: -0.42

Task: Data request, read-out z-score, for CCCCN1CC=CC23O[C@@H]4/C=C\CCC(C)OC(=O)C4[C@H]2C(=O)N(C(C)CO)[C@@H]3C1=O (stereo not given in full)
Output: 0.316

Task: I am curious: what z-score value has been reported for C=CCC(OC(C)=O)[C@@H]1[C@@H](N(Cc2ccc(-c3cccc(C(F)(F)F)c3)o2)C(=O)c2cccc3ccccc23)c2cc(OCCCO)ccc2N1C(=O)c1ccc2ccccc2c1 (stereo not given in full) ?
Output: -0.549

====

molecular target: Albumin (Bos taurus); assay: bovine serum albumin binders on microarray, profiling panel, artefact control for SMM control protein annotation, biochemical, small-molecule microarray, Alexa647 label, 635/667 nm fluorescence (AID 1118); conditions: BSA-A647 binding, fluorescence 635 nm, higher = more signal;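 further: score merges 667 nm emission intensity and signal-to-noise per printed compound spot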
PROPERTY: composite z-score
Number only, please.

Task: What does the record list as composite z-score for C=CCC(OC(C)=O)[C@@H]1[C@@H](N(Cc2cccc3ccccc23)C(=O)c2cccc3ccccc23)c2cc(OCCCO)ccc2N1C(=O)Cc1ccc2ccccc2c1 (stereo partly drawn) ?
Output: -0.351

Task: GET /values?readout=composite z-score&item= O=C1OCCC/C=C\[C@H]2OC34C=CCN(Cc5ccccc5)C(=O)[C@H]3N(CCCCCO)C(=O)[C@@H]4C12 (stereo partly drawn)
Output: 0.499

Task: # get_value(readout='composite z-score', item= C=C(CCCC)C(=O)CC[C@H](OC(=O)c1cccnc1)c1ccc(CO)o1 )
Output: 0.133

Task: Could you tell me which composite z-score is on file for CCCCC(=C=CC[C@H](O)c1ccc(OCCO)cc1)C[C@H](O)c1ccccn1 ?
Output: -0.273

Task: // lookup composite z-score for C=CCC(OC(C)=O)[C@@H]1[C@@H](N(Cc2ccc(-c3ccccc3)cc2)C(=O)c2cccc3ccccc23)c2cc(OCCCO)ccc2N1C(=O)c1ccc2ccccc2c1 (stereo partly drawn)
Output: 0.002

Task: For the compound COCCOC(=O)N1C(=O)[C@@]2(c3cc(C#CCCO)ccc31)[C@H](c1ccc(O)cc1)N1[C@H](c3ccccc3)[C@H](c3ccccc3)OC(=O)[C@H]1[C@@H]2C(=O)N1CCc2cc(OC)c(OC)cc2C1 , what composite z-score is on record?
Output: -0.997

Task: Item CC(C)=CCN(C(=O)C#Cc1ccccc1)[C@H](CO)c1ccccc1 has what recorded composite z-score?
Output: -0.105

Task: # input compound: CC(C)CNC(=O)[C@@H]1c2ccccc2C(=O)N(Cc2ccccc2Cl)[C@H]1c1ccc(CO)cc1 ; wanted: its composite z-score
Output: -0.261

====

assay: small-molecule microarray binders of probe aXIP, primary screen, biochemical, NeuroSMM set, 635/667 nm fluorescence (AID 1119); conditions: higher = more signal, called active from +8 up or from −8 down;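 further: probe is the protein aXip251-270 applied at 1 µg/mL to compound-printed slides; binding of probe to printed compounds measured as 667 nm fluorescence plus signal to noise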
PROPERTY: composite Z-score
Please reply with the value in numeric form only.

Task: Return reported composite Z-score; argument: COCCOC(=O)N1C(=O)[C@@]2(c3cc(C#Cc4ccc(OC)cc4)ccc31)[C@H](C(=O)N1CCCCCCC1)[C@H]1C(=O)O[C@H](c3ccccc3)[C@H](c3ccccc3)N1[C@@H]2c1ccccc1OCCO
Output: 4.24

Task: Please look up its composite Z-score: CN1C(=O)[C@]2(CCS(=O)(=O)c3ccccc3)N=C(c3ccc(OCCCO)cc3)O[C@@H]2c2ccccc21
Output: 0.222

Task: Please give the measured composite Z-score for this compound: C[C@H]1NC(=O)C([C@@H](C)OCc2ccccc2)NC(=O)[C@@]23C(=O)N[C@@H](Cc4ccccc4)C2[C@H](C)[C@@]2(C)O[C@H]2C3/C=C/C/C=C\CNC1=O (stereo partly specified)
Output: -0.211

Task: Would you mind telling me what composite Z-score value was observed for NC(=O)[C@@]1(CCS(=O)(=O)c2ccccc2)COC(c2ccc(OCCCO)cc2)=N1 ?
Output: -0.823

Task: Requested field: composite Z-score. Item: CCN(CC)c1ccc(N2CC=CC34O[C@@H]5C=CCOC(=O)[C@@H]5[C@H]3C(=O)N(CCCO)[C@@H]4C2=O)cc1 (stereo partly specified)
Output: 0.547

Task: Which composite Z-score is listed for [N-]=[N+]=Nc1ccccc1[C@@H]1OC(c2ccc(OCCCO)cc2)=N[C@]1(Cc1ccccc1)C(N)=O ?
Output: -0.0189

Task: Suppose we examine the compound COCCCNC(=O)[C@@H]1c2ccccc2C(=O)N(Cc2cc(C(F)(F)F)cc(C(F)(F)F)c2)[C@H]1c1ccc(CO)cc1 ; what composite Z-score value has been reported?
Output: -0.0722

Task: Would you kindly share the measured composite Z-score for CN(C)CCCC[C@@H]1NC(=O)[C@H]2C[C@@H](C(=O)O)[C@@H](c3cccc(OCCO)c3)N2C1=O ?
Output: 0.666

Task: Could you share which composite Z-score value was measured for CC(C)N1CC=CC23O[C@@H]4C=CCCOC(=O)C4[C@H]2C(=O)N(CCCCCO)[C@@H]3C1=O (stereo partly specified) ?
Output: 0.23

Task: Any idea what composite Z-score was measured for CCOC(=O)C1=C[C@@H](C(C)(C)C)N(S(=O)(=O)c2ccc(C)cc2)[C@H]1c1ccccc1Cl ?
Output: 0.102

Task: Consider the compound shown here: CCCCC(=C=CC[C@H](O)c1ccc(OCCO)cc1)C[C@H](O)c1ccccn1 What is its recorded composite Z-score?
Output: 0.611

====

molecular target: Dickkopf-related protein 1 (Homo sapiens) (UniProt O94907); experiment: DKK1 binders on small-molecule microarrays, primary screen, biochemical, small-molecule microarray, 635 nm fluorescence scan (AID 1106); conditions: DKK1 binding, higher = more signal;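 further: score merges emission near 667 nm with signal to noise over three replicate slides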
Sequence (O94907 whole entry, looked up): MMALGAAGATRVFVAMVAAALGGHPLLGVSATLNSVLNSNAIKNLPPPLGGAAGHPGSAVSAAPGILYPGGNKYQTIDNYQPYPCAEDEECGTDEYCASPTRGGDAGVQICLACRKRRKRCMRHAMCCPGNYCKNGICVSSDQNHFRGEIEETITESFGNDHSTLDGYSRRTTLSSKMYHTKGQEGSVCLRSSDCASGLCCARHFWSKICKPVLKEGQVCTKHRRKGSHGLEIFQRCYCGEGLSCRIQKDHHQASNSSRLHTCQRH
Would you mind labelling by composite z-score? At or over 0.4 is Yes, under is No.

Task: // inclusive: composite z-score at least 0.4? input: CN(C)CCCC[C@@H]1NC(=O)[C@H]2C[C@@H](C(=O)NCc3ccc(F)cc3)[C@@H](c3ccc(O)cc3)N2C1=O
Output: Yes

Task: Is composite z-score for CCCC[C@@H](O)C1=C(COC)Cn2c(=O)n(-c3ccccc3)c(=O)n2[C@H]1CO at or above 0.4?
Output: No

Task: Say whether COC(=O)[C@@]1(CCC(=O)OC(C)(C)C)N=C(c2ccc(OCCCO)cc2)O[C@H]1c1ccccc1CN=[N+]=[N-] shows composite z-score of 0.4 or more.
Output: No

Task: Would you say O=c1cccc(-c2ccccc2C(F)(F)F)o1 shows composite z-score at minimum 0.4?
Output: No

Task: Confirm if composite z-score reported for the compound C[N+](C)(C)CCCCCCNC(=O)[C@H]1C[C@H]2C(=O)NCC(=O)N2[C@H]1c1cccc(OCCO)c1 is 0.4 or above.
Output: Yes

Task: Reported composite z-score reaches at least 0.4 for CCC[C@@H]1[C@@H](Sc2ccccc2)[C@@H](C(=O)O)[C@H](c2ccc(C)cc2)N1S(=O)(=O)c1ccc(C)cc1 ?
Output: No

Task: Please check the record CN(C)CCCC[C@@H]1NC(=O)[C@@H]2C[C@H](C(=O)NCc3ccc(F)cc3)[C@H](c3ccc(O)cc3)N2C1=O and state if its composite z-score is at or above 0.4.
Output: No

Task: Evaluate CCOC(=O)C[C@H]1[C@H](OC(=O)c2ccc(-c3ccccc3)cc2)[C@@H](NC(=O)c2ccc3ccccc3c2)c2cc(OCCCO)ccc2N1C(=O)c1ccccc1 : composite z-score at minimum 0.4?
Output: No

Task: Given the entry C=C(COC)/C(=C/C[C@H](OC(=O)c1ccncc1)c1ccc(OCCO)cc1)c1cc(C(=O)OC)ccc1OC , answer whether its composite z-score meets or surpasses 0.4.
Output: Yes

Task: // inclusive: composite z-score at least 0.4? input: C=CC[C@]1(C(=O)NCc2ccccc2)COC(c2ccc(OCCCO)cc2)=N1
Output: No

Task: Check the entry CCCC[C@H]1OB(O)C[C@H]2C1=C(C)C[C@H]1C(=O)C=CC(=O)[C@H]12 : does composite z-score equal or exceed 0.4?
Output: Yes

Task: Please tell me: is the compound C=CCC(OC(C)=O)[C@@H]1[C@@H](N(Cc2ccc(-c3ccccc3)cc2)C(=O)c2ccc(-c3ccccc3)cc2)c2cc(OCCCO)ccc2N1C(=O)c1ccc2ccccc2n1 (stereo not given in full) at or over 0.4 in terms of composite z-score?
Output: No

Task: Does the reported composite z-score for C=C(COC)/C(=C/C[C@@H](OC(C)=O)c1ccccc1OCCO)c1cc(C(=O)OC)ccc1OC fall at or above the 0.4 mark?
Output: No

Task: Determine whether measured composite z-score meets or exceeds 0.4 for O=C(NCC(F)(F)F)[C@@H]1c2ccccc2C(=O)N(CC23CC4CC(CC(C4)C2)C3)[C@H]1c1ccc(CO)cc1
Output: No

Task: # bool: composite z-score of COCCOC(=O)N1C(=O)[C@@]2(c3cc(C#CCCO)ccc31)[C@H](c1ccc(O)cc1)N1[C@H](c3ccccc3)[C@H](c3ccccc3)OC(=O)[C@H]1[C@@H]2C(=O)N1CCc2cc(OC)c(OC)cc2C1 >= 0.4
Output: Yes

Task: Determine whether this compound has composite z-score no lower than 0.4: CC(C)=CCN(C(=O)C#Cc1ccccc1)[C@H](CO)c1ccccc1
Output: Yes

Task: API: above_or_equal(metric=composite z-score, cutoff=0.4) for item Cc1ccccc1C(O)C1C=CC2C(=O)N(c3ccccc3)C(=O)C2N1Nc1ccccc1F (stereo not given)
Output: No

Task: Please tell me: is the compound COCCCNC(=O)[C@@H]1c2ccccc2C(=O)N(Cc2cc(C(F)(F)F)cc(C(F)(F)F)c2)[C@H]1c1ccc(CO)cc1 at or over 0.4 in terms of composite z-score?
Output: No

Task: Could you tell me if the measured composite z-score of CC(C)C[C@@H]1NC(=O)[C@@H]2C[C@H](C(=O)O)[C@H](c3ccc(O)cc3)N2C1=O reaches 0.4 or more?
Output: Yes

Task: Would you say CCCCNC(=O)c1ccc(C#C[Si](C)(C)C)c(OC(C)=O)c1 shows composite z-score at minimum 0.4?
Output: No
